TEST_DESCRIPTION: in vitro
EXPERIMENTAL_CONTEXT: human, hela cells, % viability
Labelling: viability at 28.5 h, 10 µM reported below 90% becomes criterion met; at or above becomes criterion not met.

// below: answered compounds
INSERT INTO measurements (compound, group_label) VALUES
  ('CSc1nnc(CCCNC(=O)c2cccc(C#N)c2)n1C1CCCC1 [CBK305459]', 'criterion met'),
  ('CCC(=O)Nc1nc2ccccc2n1CCN1CCOCC1 [CBK261477]', 'criterion not met'),
  ('CCNc1nnc(SCCC(=O)N2CCN(c3ccc(F)cc3)CC2)s1 [CBK305058]', 'criterion not met'),
  ('O=c1cc(C(F)(F)F)c2ccc(OCc3ccc(Cl)cc3)cc2o1 [CBK058200]', 'criterion not met'),
  ('OCCN(CCO)c1cncc(-c2cccc(C(F)(F)F)c2)n1 [CBK037917]', 'criterion not met');

Exam item: Answer whether the compound O=C1CC[C@@H](NCc2ccco2)[C@H](c2cc(F)cc(F)c2)N1 [CBK283127] has viability at 28.5 h, 10 µM strictly less than 90%
Marked response: criterion not met

Exam item: Answer whether the compound Clc1ccc(COc2ccc(/C=N/Nc3nc(N4CCOCC4)nc(N4CCOCC4)n3)cc2)c(Cl)c1 [CBK262061] has viability at 28.5 h, 10 µM strictly less than 90%
Marked response: criterion not met

Exam item: Answer whether the compound O=c1[nH]c2cc(NCCO)c([N+](=O)[O-])cc2[nH]1 [CBK009794] has viability at 28.5 h, 10 µM strictly less than 90%
Marked response: criterion not met

Exam item: Answer whether the compound O=C(OCc1ccccc1)N1CCC(C2OCc3ccc(-c4ccc(Cl)c(Cl)c4)cc3O2)CC1 (stereo not drawn) [CBK144646] has viability at 28.5 h, 10 µM strictly less than 90%
Marked response: criterion not met

Exam item: Answer whether the compound O=C(O)c1ccccc1-c1ccccc1C(=O)Nc1ccccc1-c1ccccc1 [CBK262843] has viability at 28.5 h, 10 µM strictly less than 90%
Marked response: criterion met

---

TEST_DESCRIPTION: in vitro
EXPERIMENTAL_CONTEXT: human, hela cells, % viability
Quick reference for viability at 28.5 h, 10 µM among some compounds
Write down the numeric answer in % and omit the unit.

Look over these answered cases.
INSERT INTO results (compound, unit_tag, readout_number) VALUES
  ('CCOC(=O)N1CCC(NC(=O)N2CCCC(CO)C2)CC1 (centres unmarked)', '%', 90.6),
  ('CCC(C)(C)c1ccc(S(=O)(=O)N2CCN(Cc3cccc4cccnc34)CC2)cc1', '%', 98.1),
  ('Cc1cc(Cl)ccc1NC(=O)CCC(=O)N/N=C/c1ccc(O)cc1', '%', 89.6);

We next turn to a different compound, shown below.
Exam item: Give viability at 28.5 h, 10 µM for the following compound: `O=C(O)C1CCN(C(=O)c2ccc3nsnc3c2)CC1`
Marked response: 99.8

---

TEST_DESCRIPTION: in vitro
EXPERIMENTAL_CONTEXT: human, hela cells, % viability
Quick reference for viability at 28.5 h, 10 µM among some molecules

INSERT INTO measurements (molecule, observation_type, result) VALUES
  ('CCN(CC1CCOCC1)C(=O)Cn1c(C)cc(=O)c2ccccc21', 'viability at 28.5 h, 10 µM', '88.7%');

Exam item: Give viability at 28.5 h, 10 µM for the following molecule: c1ccc(COc2ccc(N3CCNCC3)cc2)cc1 [CBK012776C]
Marked response: 83.5%

Exam item: Give viability at 28.5 h, 10 µM for the following molecule: `O=C(O)CCC(=O)c1c[nH]c2ccccc12`
Marked response: 110%

Exam item: Give viability at 28.5 h, 10 µM for the following molecule: `Fc1ccc(CN(Cc2ccco2)C2CCN(c3ccc4c(c3)OCO4)CC2)cc1`
Marked response: 88.7%

Exam item: Give viability at 28.5 h, 10 µM for the following molecule: `CC(C)CC(=O)N1CCCn2nc(-c3ccncc3)cc2C1`
Marked response: 94.7%

---

TEST_DESCRIPTION: in vitro
EXPERIMENTAL_CONTEXT: human, hela cells, % viability
Quick reference for viability at 28.5 h, 10 µM among some compounds
Write down the numeric answer in % and omit the unit.

INSERT INTO assay_data (compound, observation_type, readout_number) VALUES
  ('Cc1ccc(-c2cc(C(=O)Nc3ccc(S(N)(=O)=O)cc3)c3ccc(Cl)c(C)c3n2)cc1 [CBK267745]', 'viability at 28.5 h, 10 µM', 111),
  ('Cc1nn(C)c(Oc2ccc3c(c2)CCCC3)c1[N+](=O)[O-] [CBK000273]', 'viability at 28.5 h, 10 µM', 91.2),
  ('C=CCNCc1cc2c(C)nn(-c3ccccc3)c2[nH]c1=O [CBK282898]', 'viability at 28.5 h, 10 µM', 88.7),
  ('Cc1c(NC(=O)Nc2ccccc2)sc(=S)n1C [CBK027434]', 'viability at 28.5 h, 10 µM', 90.6),
  ('CC(Cn1cncc1-c1cnn(C)c1)Oc1ccccc1Cl (stereo not drawn) [CBK281737]', 'viability at 28.5 h, 10 µM', 105),
  ('NC(=O)c1ccccc1NC(=O)C1CCC(C(=O)Nc2ccccc2C(N)=O)CC1 (stereo not drawn) [CBK268716]', 'viability at 28.5 h, 10 µM', 87.1);

Exam item: Give viability at 28.5 h, 10 µM for the following compound: COC(=O)c1cc(CN2CCCN(S(=O)(=O)c3ccc(C(F)(F)F)cc3Cl)CC2)cn1C [CBK063097]
Marked response: 99.4

Exam item: Give viability at 28.5 h, 10 µM for the following compound: Nc1ccc(-c2ccc(OC(F)(F)F)cc2)c2ccccc12 [CBK084327]
Marked response: 84.6

Exam item: Give viability at 28.5 h, 10 µM for the following compound: O=C(Cn1nnc2ccccc21)c1ccc2c(c1)CCN2S(=O)(=O)c1ccccc1 [CBK286464]
Marked response: 101

---

TEST_DESCRIPTION: in vitro
EXPERIMENTAL_CONTEXT: human, hela cells, % viability
OBSERVATION_TYPE: viability at 28.5 h, 10 µM (%)
Write down the numeric answer in % and omit the unit.

Look over these answered cases.
INSERT INTO assay_data (molecule, observation_type, readout_number) VALUES
  ('Cc1c(Nc2ncnc3sc4c(c23)CCCC4)c(=O)n(-c2ccccc2)n1C', 'viability at 28.5 h, 10 µM', 93.1),
  ('NC(=O)c1ccc(C(=O)NCC2CN3CCCN2CC3)cc1 (stereo not shown)', 'viability at 28.5 h, 10 µM', 114),
  ('CC(=O)Nc1ccc(Nc2ccc([N+](=O)[O-])cc2[N+](=O)[O-])cc1', 'viability at 28.5 h, 10 µM', 84.6),
  ('COCCN(Cc1cnn(C)c1)C(=O)Nc1cccc2nc(C)ccc12', 'viability at 28.5 h, 10 µM', 106),
  ('CCN(CC)c1ccc(C(=O)CN2CCN(c3nccnc3OCCN3CCOCC3)CC2)cc1 [CBK082898T]', 'viability at 28.5 h, 10 µM', 97.4),
  ('COc1cc(CN2CCN(Cc3cccc4ccccc34)CC2)c([N+](=O)[O-])cc1OC [CBK074450G]', 'viability at 28.5 h, 10 µM', 106);

Exam item: Give viability at 28.5 h, 10 µM for the following molecule: `C=CCNC(=O)N1CC[C@H]2CC(=O)N(Cc3cccnc3)CC[C@H]2C1`
Marked response: 113

Exam item: Give viability at 28.5 h, 10 µM for the following molecule: `CN1CCC[C@H]1c1nc(-c2ccnc(NS(C)(=O)=O)c2)no1`
Marked response: 86.8

Exam item: Give viability at 28.5 h, 10 µM for the following molecule: `O=C(N[C@H]1CCN2C(=O)c3cc(-c4ccccc4)ccc3NC(=O)[C@H]12)c1cccs1`
Marked response: 85.9

Exam item: Give viability at 28.5 h, 10 µM for the following molecule: O=C1NC(=O)C(CC(=O)N2CCCC3(CCN(C(=O)c4cc(F)c(F)cc4F)C3)C2)N1 (stereo not shown)
Marked response: 96.2

Exam item: Give viability at 28.5 h, 10 µM for the following molecule: `CC(C)c1ccc(NS(=O)(=O)c2ccc(F)c(C(=O)O)c2)cc1`
Marked response: 104

Exam item: Give viability at 28.5 h, 10 µM for the following molecule: `O=C(NC1CCN(CC2(c3ccccc3)CC2)CC1)C1CCC1`
Marked response: 98.9

Exam item: Give viability at 28.5 h, 10 µM for the following molecule: Cc1ccc(C(=O)C(NC(=O)c2cccs2)Nc2ccc(S(N)(=O)=O)cc2)cc1 (stereo not shown)
Marked response: 89

Exam item: Give viability at 28.5 h, 10 µM for the following molecule: `CCOC(=O)c1nc(N)c2c(CC#N)nn(C)c2n1`
Marked response: 109
